Origin of the recorded values: patent US20040052828A1

Below, each entry is listed with its recorded Cooling threshold.
tested on: trained panelists; assay: Cooling threshold in water, triangle test by trained panelists; format: in vivo, human; settings: determined in water

Look over these answered cases.
Lookup: Give its Cooling threshold value. Item: CCC1CC=C(N2CCCC2)C1=O (stereo not drawn) [5-EPC]
Found: 27 to 43 mg/kg

Lookup: Next entry: CC1=C(N2CCCC2)C(=O)CO1 [MPF]
Found: 1.5 to 3.0 mg/kg

Lookup: Next entry: CC1=C(N2CCCC2)C(=O)OC1C (stereo not drawn) [2(5H)-DMPF]
Found: 2.0 to 4.0 mg/kg

Lookup: Next entry: CC1=C(N2CCCCC2)C(=O)CC1 [3-MPipC]
Found: 60 to 100 mg/kg

Lookup: Next entry: CC1=C(N2CCCC2)C(=O)C(C)O1 (stereo not drawn) [DMPF]
Found: 100 to 140 mg/kg

Next:
Lookup: Give its Cooling threshold value. Item: CCN(CC)C1=CCC(C)C1=O (stereo not drawn) [5-MdeaC]
Found: 12 to 20 mg/kg

Lookup: Next entry: CC1=C(N2CCCC2)C(=O)OC1 [2(5H)-MPF]
Found: 0.02 to 0.06 mg/kg

Lookup: Next entry: CC1CC=C(N2CCCC2)C1=O (stereo not drawn) [5-MPC]
Found: 4.5 to 9 mg/kg

Lookup: Next entry: CC1CCC=C(N2CCCC2)C1=O (stereo not drawn) [6-MPCH]
Found: 27 to 45 mg/kg

Lookup: Next entry: CC1=C(N2CCCC2)C(=O)CC1C (stereo not drawn) [3,4-DMPC]
Found: 51 to 86 mg/kg

Lookup: Next entry: CC1CC=C(N2CCCCC2)C1=O (stereo not drawn) [5-MpipC]
Found: 16 to 24 mg/kg
